# tested target: hAC1 (Homo sapiens, UniProt Q08828)
# Construct: expressed in transfected cells
# Sequence (Q08828 whole entry): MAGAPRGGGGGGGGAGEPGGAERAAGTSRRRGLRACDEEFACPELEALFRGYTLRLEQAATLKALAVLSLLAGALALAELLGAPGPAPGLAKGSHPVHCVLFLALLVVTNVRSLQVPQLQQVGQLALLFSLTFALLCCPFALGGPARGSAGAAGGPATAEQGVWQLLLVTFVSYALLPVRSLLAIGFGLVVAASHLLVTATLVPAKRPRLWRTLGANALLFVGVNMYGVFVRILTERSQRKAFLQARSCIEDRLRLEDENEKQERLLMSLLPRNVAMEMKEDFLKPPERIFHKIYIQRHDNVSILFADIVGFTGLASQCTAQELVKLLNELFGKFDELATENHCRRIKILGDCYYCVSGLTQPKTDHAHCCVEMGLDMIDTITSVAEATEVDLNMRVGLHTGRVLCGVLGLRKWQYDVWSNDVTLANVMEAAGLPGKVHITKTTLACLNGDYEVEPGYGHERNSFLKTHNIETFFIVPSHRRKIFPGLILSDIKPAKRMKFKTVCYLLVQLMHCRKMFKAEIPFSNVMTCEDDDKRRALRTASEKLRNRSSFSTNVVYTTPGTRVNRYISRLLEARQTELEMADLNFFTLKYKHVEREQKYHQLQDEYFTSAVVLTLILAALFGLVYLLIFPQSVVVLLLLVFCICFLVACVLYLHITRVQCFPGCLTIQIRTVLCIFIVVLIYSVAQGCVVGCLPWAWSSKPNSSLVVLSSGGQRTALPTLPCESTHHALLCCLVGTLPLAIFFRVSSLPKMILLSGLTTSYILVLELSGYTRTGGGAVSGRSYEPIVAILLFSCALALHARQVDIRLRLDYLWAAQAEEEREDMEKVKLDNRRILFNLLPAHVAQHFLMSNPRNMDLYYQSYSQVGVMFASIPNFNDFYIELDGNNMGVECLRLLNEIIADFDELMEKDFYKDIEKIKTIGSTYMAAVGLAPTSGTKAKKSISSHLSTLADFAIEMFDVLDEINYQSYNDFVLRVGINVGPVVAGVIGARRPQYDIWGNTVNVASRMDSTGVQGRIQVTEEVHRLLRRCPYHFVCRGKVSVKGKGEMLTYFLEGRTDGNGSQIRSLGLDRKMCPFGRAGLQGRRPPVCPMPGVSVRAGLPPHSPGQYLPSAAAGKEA
# experiment summary: Cyclic AMP accumulation in HEK cells stably expressing AC1, stimulated with A23187 (HTRF)
# Format: cell-based
# condition set: HEK293; HEK-AC1 cells, 30 μM
# binarize inhibition at 30 µM: threshold 90% inclusive, high side 1.0, low side 0.0

Request: Determine whether measured inhibition at 30 µM meets or exceeds 90% for Cc1cc(C(=O)Nc2nnc(C3CCCCC3)o2)cc(C(F)(F)F)c1
Response: 1.0

Request: # check: inhibition at 30 µM of COc1cc(C(=O)Nc2nnc(-c3ccc4c(c3)CCCC4)o2)cc(C(F)(F)F)c1 is greater than or equal to 90%
Response: 0.0

Request: Assess whether reported inhibition at 30 µM for Cc1ccc(C(=O)Nc2nnc(-c3ccc4c(c3)CCCC4)o2)cc1 sits at 90% or higher.
Response: 1.0

Request: Does the compound O=C(Nc1nnc(-c2ccc3c(c2)OCCO3)o1)c1ccccc1 have recorded inhibition at 30 µM that is 90% or more?
Response: 0.0

Request: Item CC(C)Oc1ccc(C(=O)Nc2nnc(-c3cccs3)o2)cc1 with inhibition at 30 µM of 90% or above?
Response: 0.0

----------
# log10(IC50) listing for each entry below
# tested target: hAC1 (Homo sapiens, UniProt Q08828)
# Construct: expressed in transfected cells
# experiment summary: Cyclic AMP accumulation in HEK cells stably expressing AC1, stimulated with A23187 (HTRF)
# Format: cell-based
# condition set: HEK-AC1 cells; read-out: HEK-AC1 IC50
In our notation, the value equals log10 of IC50 in µM.

Check out these entries, answers already filled in.
For record Cc1ccc(C(=O)Nc2nnc(-c3ccc4c(c3)CCCC4)o2)cc1 the listed log10(IC50) is 0.53

CC(C)Oc1ccc(C(=O)Nc2nnc(C3CCCCC3)o2)cc1 has a reported log10(IC50) of 1.00

O=C(Nc1nnc(C2CCCCC2)o1)c1cccc(F)c1 yielded log10(IC50) of 1.02

Entry Cc1cc(C(=O)Nc2nnc(-c3ccc4c(c3)CCCC4)o2)cc(C(F)(F)F)c1 , log10(IC50) reported as 0.96

The reported log10(IC50) of the compound Cc1ccc(C(=O)Nc2nnc(C3CCCCC3)o2)cc1C(F)(F)F was 0.57

Value of measured log10(IC50) for the entry O=C(Nc1nnc(C2CCCCC2)o1)c1ccc(F)cc1 : 1.11

Item: O=C(Nc1nnc(C2CCCCC2)o1)c1ccc(Cl)cc1 | log10(IC50): 1.13

log10(IC50) for COc1cccc(C(=O)Nc2nnc(-c3ccc4c(c3)CCCC4)o2)c1 is 0.49

log10(IC50) in this record for COc1ccc(C(=O)Nc2nnc(-c3cccs3)o2)cc1 : 1.18

Form field log10(IC50), entry O=C(Nc1nnc(-c2ccc3c(c2)CCCC3)o1)c1cccc(C(F)(F)F)c1 : 0.20

Next:
// field: log10(IC50); key: COc1cccc(C(=O)Nc2nnc(-c3ccc(F)cc3)o2)c1 ; value = 1.18

Reported log10(IC50) ( Cc1ccc(C(=O)Nc2nnc(-c3ccc(F)cc3)o2)cc1C ) = 0.81

Please fill in: log10(IC50) reported for O=C(Nc1nnc(-c2cccs2)o1)c1ccccc1 = 1.46

Entry O=C(Nc1nnc(-c2ccc(F)cc2)o1)c1cccc(C(F)(F)F)c1 , log10(IC50) reported as 0.70

log10(IC50) for O=C(Nc1nnc(-c2ccc3c(c2)OCCO3)o1)c1ccccc1 is 1.49

COc1ccc(C(=O)Nc2nnc(-c3ccc4c(c3)CCCC4)o2)cc1 yielded log10(IC50) of 0.81

All figures here come from patent US20200031785A1.
